Listing of entries alongside the reported pEC50.
molecular target: Ionotropic glutamate receptor NMDA 1/2D (Rattus norvegicus, UniProt P35439+Q62645); assay: Agonist activity at rat recombinant wild type GluN1/GluN2D receptor expressed in Xenopus laevis oocytes by two electrode voltage clamp technique
pEC50 field: float, defined as -log10 of concentration (mol/L).

| Sample Smiles | pEC50 |
| --- | --- |
| C[C@]1(C(=O)O)C[C@H]1[C@H](N)C(=O)O | 7.59 |
| CCCc1cnn(O)c1[C@@H](N)C(=O)O | 3.82 |
| CC[C@]1(C(=O)O)C[C@H]1[C@H](N)C(=O)O | 7.10 |

Problem: Give me measured pEC50, please, for this compound: CCCC[C@]1(C(=O)O)C[C@H]1[C@H](N)C(=O)O
Result: 5.48

Problem: Give me measured pEC50, please, for this compound: CCC[C@]1(C(=O)O)C[C@H]1[C@H](N)C(=O)O
Result: 5.18

Problem: Give me measured pEC50, please, for this compound: N[C@H](C(=O)O)[C@@H]1C[C@@H]1C(=O)O
Result: 7.44

###

biological target: Glutamate NMDA receptor; Grin1/Grin2b (Rattus norvegicus, UniProt P35439+Q00960); test: Agonist activity at rat recombinant wild type GluN1/GluN2B receptor expressed in Xenopus laevis oocytes by two electrode voltage clamp technique; format: cell-based, Oocyte
Sequence (Q00960 whole entry, other chains not shown): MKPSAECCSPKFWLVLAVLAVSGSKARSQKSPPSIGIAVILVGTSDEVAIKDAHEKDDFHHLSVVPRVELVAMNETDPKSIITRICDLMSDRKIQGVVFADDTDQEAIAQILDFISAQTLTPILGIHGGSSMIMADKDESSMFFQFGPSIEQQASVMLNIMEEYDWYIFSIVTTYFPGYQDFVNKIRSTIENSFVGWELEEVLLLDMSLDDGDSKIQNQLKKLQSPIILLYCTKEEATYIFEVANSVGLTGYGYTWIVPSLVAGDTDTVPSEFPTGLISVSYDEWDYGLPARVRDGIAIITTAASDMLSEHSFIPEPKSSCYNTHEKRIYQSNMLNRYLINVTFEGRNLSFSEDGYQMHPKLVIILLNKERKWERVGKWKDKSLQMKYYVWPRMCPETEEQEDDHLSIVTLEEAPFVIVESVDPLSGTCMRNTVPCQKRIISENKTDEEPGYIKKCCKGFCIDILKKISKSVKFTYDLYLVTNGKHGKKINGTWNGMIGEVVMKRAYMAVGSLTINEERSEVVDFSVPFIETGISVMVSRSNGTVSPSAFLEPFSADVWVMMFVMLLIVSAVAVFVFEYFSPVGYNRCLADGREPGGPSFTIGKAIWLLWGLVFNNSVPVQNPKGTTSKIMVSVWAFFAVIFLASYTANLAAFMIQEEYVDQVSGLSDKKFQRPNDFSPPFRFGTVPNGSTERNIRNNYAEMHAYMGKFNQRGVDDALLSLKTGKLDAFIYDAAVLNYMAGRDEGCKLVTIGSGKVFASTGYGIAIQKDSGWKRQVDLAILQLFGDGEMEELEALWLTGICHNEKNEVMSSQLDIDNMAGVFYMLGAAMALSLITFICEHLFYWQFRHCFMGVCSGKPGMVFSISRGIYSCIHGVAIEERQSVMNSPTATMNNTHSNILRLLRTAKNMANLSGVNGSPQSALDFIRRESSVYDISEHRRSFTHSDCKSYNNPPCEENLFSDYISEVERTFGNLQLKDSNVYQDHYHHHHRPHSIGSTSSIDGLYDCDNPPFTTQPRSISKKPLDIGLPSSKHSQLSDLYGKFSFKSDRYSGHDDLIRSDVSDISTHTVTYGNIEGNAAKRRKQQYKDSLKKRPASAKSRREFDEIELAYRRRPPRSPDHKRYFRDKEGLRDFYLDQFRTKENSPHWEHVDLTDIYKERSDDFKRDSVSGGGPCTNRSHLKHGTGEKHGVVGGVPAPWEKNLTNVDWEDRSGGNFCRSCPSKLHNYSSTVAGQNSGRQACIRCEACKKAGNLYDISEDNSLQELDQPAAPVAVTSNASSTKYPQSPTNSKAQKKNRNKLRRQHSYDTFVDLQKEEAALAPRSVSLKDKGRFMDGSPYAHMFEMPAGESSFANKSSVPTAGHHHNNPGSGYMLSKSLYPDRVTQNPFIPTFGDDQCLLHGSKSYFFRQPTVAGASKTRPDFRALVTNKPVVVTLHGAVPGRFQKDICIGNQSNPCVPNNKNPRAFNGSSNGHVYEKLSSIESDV
Listing of entries alongside the reported log10(EC50).
// do not treat as linear: log10 of EC50, unit µM

| Sample Smiles | System | log10(EC50) |
| --- | --- | --- |
| CC[C@]1(C(=O)O)C[C@H]1[C@H](N)C(=O)O | Glutamate NMDA receptor; Grin1/Grin2b (Rattus norvegicus, UniProt P35439+Q00960) | -0.57 |

Kindly consider the entry below.
Problem: Give me measured log10(EC50), please, for this molecule: CCCc1cnn(O)c1[C@@H](N)C(=O)O
Result: 2.02

###

molecular target: Glutamate NMDA receptor; Grin1/Grin2c (Rattus norvegicus, UniProt P35439+Q00961); experiment: Agonist activity at rat recombinant wild type GluN1/GluN2C receptor expressed in Xenopus laevis oocytes by two electrode voltage clamp technique
Quantity Kind: EC50 (µM)
Supply the numeric figure in µM, leaving out any unit text.

| Sample Smiles | Result Units | EC50 |
| --- | --- | --- |
| C[C@]1(C(=O)O)C[C@H]1[C@H](N)C(=O)O | µM | 0.124 |
| CCCc1cnn(O)c1[C@@H](N)C(=O)O | µM | 429 |
| CCC[C@]1(C(=O)O)C[C@H]1[C@H](N)C(=O)O | µM | 29.9 |

Problem: Give me measured EC50, please, for this compound: N[C@H](C(=O)O)[C@@H]1C[C@@H]1C(=O)O
Result: 0.11

Problem: Give me measured EC50, please, for this compound: CC[C@]1(C(=O)O)C[C@H]1[C@H](N)C(=O)O
Result: 0.54

Problem: Give me measured EC50, please, for this compound: CCCC[C@]1(C(=O)O)C[C@H]1[C@H](N)C(=O)O
Result: 16

###

molecular target: Glutamate NMDA receptor; Grin1/Grin2a (Rattus norvegicus) (UniProt P35439+Q00959); assay: Ratio of compound Imax to glutamate Imax for rat recombinant wild type GluN1/GluN2A receptor; type: protein-complex assay
So basically: Ratio at 0.7 or higher? That is 1.0. Lower than 0.7? That is 0.0.

| Molecule | System | Classification |
| --- | --- | --- |
| CCCC[C@]1(C(=O)O)C[C@H]1[C@H](N)C(=O)O | Glutamate NMDA receptor; Grin1/Grin2a (Rattus norvegicus) (UniProt P35439+Q00959) | 0.0 |
| CCC[C@]1(C(=O)O)C[C@H]1[C@H](N)C(=O)O | Glutamate NMDA receptor; Grin1/Grin2a (Rattus norvegicus) (UniProt P35439+Q00959) | 0.0 |

Problem: Determine whether measured Ratio meets or exceeds 0.7 for C[C@]1(C(=O)O)C[C@H]1[C@H](N)C(=O)O
Result: 1.0

Problem: Determine whether measured Ratio meets or exceeds 0.7 for N[C@H](C(=O)O)[C@@H]1C[C@@H]1C(=O)O
Result: 1.0

Problem: Determine whether measured Ratio meets or exceeds 0.7 for NC(C(=O)O)c1ccnn1O (racemic)
Result: 0.0

Problem: Determine whether measured Ratio meets or exceeds 0.7 for CC[C@]1(C(=O)O)C[C@H]1[C@H](N)C(=O)O
Result: 1.0

###

biological target: Glutamate NMDA receptor; Grin1/Grin2c (Rattus norvegicus) (UniProt P35439+Q00961); experiment: Ratio of compound Imax to glutamate Imax for rat recombinant wild type GluN1/GluN2C receptor; type: protein-complex assay
Classify: Met when Ratio is strictly less than 0.7; Not met when Ratio is not.

| Compound | System | Classification |
| --- | --- | --- |
| CCCc1cnn(O)c1[C@@H](N)C(=O)O | Glutamate NMDA receptor; Grin1/Grin2c (Rattus norvegicus) (UniProt P35439+Q00961) | Met |
| CC[C@]1(C(=O)O)C[C@H]1[C@H](N)C(=O)O | Glutamate NMDA receptor; Grin1/Grin2c (Rattus norvegicus) (UniProt P35439+Q00961) | Not met |
| C[C@]1(C(=O)O)C[C@H]1[C@H](N)C(=O)O | Glutamate NMDA receptor; Grin1/Grin2c (Rattus norvegicus) (UniProt P35439+Q00961) | Not met |
| CCCC[C@]1(C(=O)O)C[C@H]1[C@H](N)C(=O)O | Glutamate NMDA receptor; Grin1/Grin2c (Rattus norvegicus) (UniProt P35439+Q00961) | Not met |

Problem: Is 0.7 strictly greater than the compound's reported Ratio? compound: NC(C(=O)O)c1ccnn1O (racemic)
Result: Met

Problem: Is 0.7 strictly greater than the compound's reported Ratio? compound: N[C@H](C(=O)O)[C@@H]1C[C@@H]1C(=O)O
Result: Not met

###

Listing of entries alongside the reported pEC50.
molecular target: Glutamate NMDA receptor; Grin1/Grin2a (Rattus norvegicus, UniProt P35439+Q00959); assay: Agonist activity at rat recombinant wild type GluN1/GluN2A receptor expressed in Xenopus laevis oocytes by two electrode voltage clamp technique; format: cell-based, Oocyte; settings: read-out: EC50
pEC50 field: float, defined as -log10 of concentration (mol/L).

# example entries with known answers
| Sample Smiles | pEC50 |
| --- | --- |
| CCCC[C@]1(C(=O)O)C[C@H]1[C@H](N)C(=O)O | 4.54 |
| CCC[C@]1(C(=O)O)C[C@H]1[C@H](N)C(=O)O | 4.33 |
| N[C@H](C(=O)O)[C@@H]1C[C@@H]1C(=O)O | 6.58 |
| CC[C@]1(C(=O)O)C[C@H]1[C@H](N)C(=O)O | 5.93 |

Kindly consider the entry below.
Problem: Give me measured pEC50, please, for this compound: C[C@]1(C(=O)O)C[C@H]1[C@H](N)C(=O)O
Result: 6.56

###

target: Ionotropic glutamate receptor NMDA 1/2D (Rattus norvegicus) (UniProt P35439+Q62645); experiment: Ratio of compound Imax to glutamate Imax for rat recombinant wild type GluN1/GluN2D receptor; type: protein-complex assay
Listing of entries alongside the reported Ratio.
Write no unit; give the number alone.

| Sample Smiles | System | Ratio |
| --- | --- | --- |
| CCCC[C@]1(C(=O)O)C[C@H]1[C@H](N)C(=O)O | Ionotropic glutamate receptor NMDA 1/2D (Rattus norvegicus) (UniProt P35439+Q62645) | 0.94 |

Problem: Return reported Ratio for target or system Ionotropic glutamate receptor NMDA 1/2D (Rattus norvegicus) (UniProt P35439+Q62645), item C[C@]1(C(=O)O)C[C@H]1[C@H](N)C(=O)O .
Result: 0.83

Problem: Return reported Ratio for target or system Ionotropic glutamate receptor NMDA 1/2D (Rattus norvegicus) (UniProt P35439+Q62645), item N[C@H](C(=O)O)[C@@H]1C[C@@H]1C(=O)O .
Result: 1.11

Problem: Return reported Ratio for target or system Ionotropic glutamate receptor NMDA 1/2D (Rattus norvegicus) (UniProt P35439+Q62645), item CCCc1cnn(O)c1[C@@H](N)C(=O)O .
Result: 0.37

Problem: Return reported Ratio for target or system Ionotropic glutamate receptor NMDA 1/2D (Rattus norvegicus) (UniProt P35439+Q62645), item CCC[C@]1(C(=O)O)C[C@H]1[C@H](N)C(=O)O .
Result: 0.89

Problem: Return reported Ratio for target or system Ionotropic glutamate receptor NMDA 1/2D (Rattus norvegicus) (UniProt P35439+Q62645), item CC[C@]1(C(=O)O)C[C@H]1[C@H](N)C(=O)O .
Result: 0.91

###

Listing of entries alongside the reported Ki.
assay: Displacement of [3H]KA from KA receptor in rat cortical synaptosomes; assay type: subcellular, Brain
Supply the numeric figure in µM, leaving out any unit text.

# example entries with known answers
| Sample Smiles | Ki, µM |
| --- | --- |
| C[C@]1(C(=O)O)C[C@H]1[C@H](N)C(=O)O | 0.11 |
| CC[C@]1(C(=O)O)C[C@H]1[C@H](N)C(=O)O | 0.61 |
| N[C@H](C(=O)O)[C@@H]1C[C@@H]1C(=O)O | 0.31 |

Kindly consider the entry below.
Problem: Give me measured Ki, please, for this compound: CCC[C@]1(C(=O)O)C[C@H]1[C@H](N)C(=O)O
Result: 21
